target: purified HLA-DR DRB1*0401 (human); assay: competition with 125I-labelled reference peptide, purified HLA
reported-metric: pIC50
Schema: pIC50 number; meaning minus log10 of the concentration expressed in molar units.

For orientation, consider the following solved cases.
FLILGKEDRRYGPAL (modifications not checked) [Flu.PB2.697] ... 5.76
RVVVSIDRFLRVRDQ (modifications not checked) [Flu.PB2.496] ... 6.95
ESAVLRGFLILGKED (modifications not checked) [Flu.PB2.690] ... 4.88

What value of measured pIC50 is listed for LIQLIVSGRDEQSIA (modifications not checked) [Flu.PB2.384] ? 7.08

Requested field: pIC50. Item: AMVFSQEDCMIKAVR (modifications not checked) [Flu.PB2.404] 5.48
